Target: UniProt P03372
Sequence (P03372 whole entry): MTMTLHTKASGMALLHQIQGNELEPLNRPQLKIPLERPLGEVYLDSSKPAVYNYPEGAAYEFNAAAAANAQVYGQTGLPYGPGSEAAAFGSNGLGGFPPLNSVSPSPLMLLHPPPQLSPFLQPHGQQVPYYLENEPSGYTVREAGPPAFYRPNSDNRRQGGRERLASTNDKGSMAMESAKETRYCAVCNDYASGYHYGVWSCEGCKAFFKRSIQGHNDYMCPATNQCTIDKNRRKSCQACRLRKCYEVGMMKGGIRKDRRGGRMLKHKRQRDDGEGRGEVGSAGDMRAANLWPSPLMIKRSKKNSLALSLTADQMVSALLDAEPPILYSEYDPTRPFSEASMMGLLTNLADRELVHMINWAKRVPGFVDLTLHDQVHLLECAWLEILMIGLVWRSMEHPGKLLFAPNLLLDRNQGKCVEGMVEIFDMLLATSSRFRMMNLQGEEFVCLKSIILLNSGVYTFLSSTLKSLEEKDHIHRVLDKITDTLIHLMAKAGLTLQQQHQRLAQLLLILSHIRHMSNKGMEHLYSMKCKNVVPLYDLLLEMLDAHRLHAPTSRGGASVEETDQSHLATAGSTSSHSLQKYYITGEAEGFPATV
Assay: Degradation of ERα in T-47D cells (immunoblotting, 4 h)
Assay type: cell-based
Design: host or cells: T-47D
Details: 10nM compound
Rule: MET for Degradation rate (%) of ERα in T-47D cells not less than 70%, NOT MET for anything less.

compound="O=C1CCC(N2Cc3cc4c(cc3C2=O)C2(CCN(CC3CCN(c5ccc([C@@H]6c7ccc(O)cc7CC[C@@H]6c6ccccc6)cc5)CC3)CC2)CO4)C(=O)N1 (some centres unmarked) [H6]" group="NOT MET"
compound="C[C@@H]1C[C@H](N2CCC3(CC2)COc2c3ccc3c2CN(C2CCC(=O)NC2=O)C3=O)CCN1C(=O)C1CCN(c2ccc([C@@H]3c4ccc(O)cc4CC[C@@H]3c3ccccc3)cc2)CC1 (some centres unmarked) [H28]" group=MET
compound="O=C1CCC(N2Cc3cc4c(cc3C2=O)OCC2(CCN(CC3CCC5(CC3)CCN(c3ccc([C@@H]6c7ccc(O)cc7CC[C@@H]6c6ccccc6)cc3)CC5)CC2)O4)C(=O)N1 (some centres unmarked) [A39]" group="NOT MET"
compound="O=C1CCC(N2Cc3ccc4c(c3C2=O)OCC2(CCN(CC3CCN(c5ccc([C@@H]6c7ccc(O)cc7CC[C@@H]6c6ccccc6)cc5)CC3)CC2)C4)C(=O)N1 (some centres unmarked) [H5]" group="NOT MET"
compound="O=C1CCC(N2Cc3c(ccc4c3OCC43CCN(CC4CCN(CC5CCN(c6ccc([C@@H]7c8ccc(O)cc8CC[C@@H]7c7ccccc7)cc6)CC5)CC4)CC3)C2=O)C(=O)N1 (some centres unmarked) [A102]" group="NOT MET"
compound="C[C@@H]1CC2(CCN(c3ccc([C@@H]4c5ccc(O)cc5CC[C@@H]4c4ccccc4)cc3)CC2)CN1CC(=O)N1CCC2(CC1)COc1c2ccc2c1CN(C1CCC(=O)NC1=O)C2=O (some centres unmarked) [A90]" group=MET
compound="CC1(CN2CCC3(CC2)COc2c3ccc3c2CN(C2CCC(=O)NC2=O)C3=O)CCN(C(=O)C2CCN(c3ccc([C@@H]4c5ccc(O)cc5CC[C@@H]4c4ccccc4)cc3)CC2)CC1 (some centres unmarked) [A109]" group=MET
compound="O=C1CCC(N2Cc3cc4c(cc3C2=O)OC2(CC4)CN(C3CCN(C(=O)C4CCN(c5ccc([C@@H]6c7ccc(O)cc7CC[C@@H]6c6ccccc6)cc5)CC4)CC3)C2)C(=O)N1 (some centres unmarked) [A82]" group=MET
compound="O=C1CCC(N2Cc3cc4c(cc3C2=O)OC2(CC4)CN(C(=O)CN3CCC4(CC3)CCN(c3ccc([C@@H]5c6ccc(O)cc6CC[C@@H]5c5ccccc5)cc3)CC4)C2)C(=O)N1 (some centres unmarked) [A70]" group=MET
